Just for reference, paper PMC5908784 is where these values come from.

Target: hCTR R362A (Homo sapiens, UniProt P30988, R362A)
Construct: expressed in transfected cells
Assay: Homologous whole cell competition binding
Conditions: homologous competition of 125I-sCT(8-32), whole cells, mean ± S.E.M., SEM
Protocol: Homologous radioligand competition was performed on 2.5 × 10^4 cells/well seeded into 96-well trays and cultured overnight. Cells were incubated overnight at 4 °C with two concentrations of ^125I-sCT(8-32) (between 25 and 100 pM; specific activity, 2000 Ci/mmol^9) and serial dilutions of non-iodinated sCT(8-32). Non-bound ligand was removed and bound ligand activity was measured using a γ counter (Wallac Wizard 1470 Gamma Counter, Perkin Elmer, 80% counter efficiency). […]
Where no end group is shown, it is not given here.
measuredAttribute: Ki
In your response, the unit should come after the numeric value.

Exam item: Please report the measured Ki for VLGKLSQELHKLQTYPRTNTGSGTP-NH2 [sCT(8-32)]
Marked response: 0.219 nM

----------
Target: hCTR WT (Homo sapiens, UniProt P30988)
Construct: expressed in transfected cells
Test: Homologous whole cell competition binding
Conditions: homologous competition of 125I-sCT(8-32), whole cells, mean ± S.E.M., SEM
Where no end group is shown, it is not given here.
measuredAttribute: pKi
Reminder that pKi means the negative base-10 logarithm of the concentration expressed in mol/L.

Exam item: Please report the measured pKi for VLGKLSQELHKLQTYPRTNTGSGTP-NH2 [sCT(8-32)]
Marked response: 9.70

----------
Biological target: hCTR K366A (Homo sapiens, UniProt P30988, K366A)
Construct: c-Myc (N); expressed in transfected cells
Assay: Homologous whole cell competition binding
Settings: homologous competition of 125I-sCT(8-32), whole cells, mean ± S.E.M., SEM
Where no end group is shown, it is not given here.
measuredAttribute: pKi
Reminder that pKi means the negative base-10 logarithm of the concentration expressed in mol/L.

Exam item: Write down measured pKi (hCTR K366A (Homo sapiens, UniProt P30988, K366A)) for this substance. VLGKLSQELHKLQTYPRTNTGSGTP-NH2 [sCT(8-32)]
Marked response: 9.71

----------
Target: hCTR E294A (Homo sapiens, UniProt P30988, E294A)
Construct: c-Myc (N); expressed in transfected cells
Experiment: Homologous whole cell competition binding
Conditions: homologous competition of 125I-sCT(8-32), whole cells, mean ± S.E.M., SEM
Where no end group is shown, it is not given here.
measuredAttribute: Ki
In your response, the unit should come after the numeric value.

Exam item: Please report the measured Ki for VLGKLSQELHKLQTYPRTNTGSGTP-NH2 [sCT(8-32)]
Marked response: 0.263 nM

----------
Target: hCTR L291A (Homo sapiens, UniProt P30988, L291A)
Construct: expressed in transfected cells
Assay: Homologous whole cell competition binding
Conditions: homologous competition of 125I-sCT(8-32), whole cells, mean ± S.E.M., SEM
Where no end group is shown, it is not given here.
measuredAttribute: Ki
In your response, the unit should come after the numeric value.

Exam item: Please report the measured Ki for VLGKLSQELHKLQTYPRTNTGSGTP-NH2 [sCT(8-32)]
Marked response: 1.74 nM

----------
Target: hCTR L297A (Homo sapiens, UniProt P30988, L297A)
Construct: c-Myc (N); expressed in transfected cells
Sequence (P30988 25-474 L297A): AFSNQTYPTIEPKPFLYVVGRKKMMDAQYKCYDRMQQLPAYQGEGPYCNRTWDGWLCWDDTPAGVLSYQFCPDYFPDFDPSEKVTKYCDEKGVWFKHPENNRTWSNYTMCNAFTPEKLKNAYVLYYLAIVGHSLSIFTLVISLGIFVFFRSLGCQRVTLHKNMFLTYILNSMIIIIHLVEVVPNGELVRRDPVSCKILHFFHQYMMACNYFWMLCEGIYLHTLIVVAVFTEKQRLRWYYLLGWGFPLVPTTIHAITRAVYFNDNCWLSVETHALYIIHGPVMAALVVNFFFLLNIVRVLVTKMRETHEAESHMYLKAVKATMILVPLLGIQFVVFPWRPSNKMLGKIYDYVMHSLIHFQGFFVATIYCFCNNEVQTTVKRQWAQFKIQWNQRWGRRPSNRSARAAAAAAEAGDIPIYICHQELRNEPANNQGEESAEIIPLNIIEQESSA
Assay: Homologous whole cell competition binding
Details: homologous competition of 125I-sCT(8-32), whole cells, mean ± S.E.M., SEM
Where no end group is shown, it is not given here.
measuredAttribute: pKi
Reminder that pKi means the negative base-10 logarithm of the concentration expressed in mol/L.

Exam item: Please report the measured pKi for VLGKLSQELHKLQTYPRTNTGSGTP-NH2 [sCT(8-32)]
Marked response: 10.20

----------
Target: hCTR G369A (Homo sapiens, UniProt P30988, G369A)
Construct: c-Myc (N); expressed in transfected cells
Experiment: Homologous whole cell competition binding
Conditions: homologous competition of 125I-sCT(8-32), whole cells, mean ± S.E.M., SEM
Where no end group is shown, it is not given here.
measuredAttribute: Ki
In your response, the unit should come after the numeric value.

Exam item: Please report the measured Ki for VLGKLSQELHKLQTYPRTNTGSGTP-NH2 [sCT(8-32)]
Marked response: 0.229 nM

----------
Biological target: hCTR M376A (Homo sapiens, UniProt P30988, M376A)
Construct: c-Myc (N); expressed in transfected cells
Sequence (P30988 25-474 M376A): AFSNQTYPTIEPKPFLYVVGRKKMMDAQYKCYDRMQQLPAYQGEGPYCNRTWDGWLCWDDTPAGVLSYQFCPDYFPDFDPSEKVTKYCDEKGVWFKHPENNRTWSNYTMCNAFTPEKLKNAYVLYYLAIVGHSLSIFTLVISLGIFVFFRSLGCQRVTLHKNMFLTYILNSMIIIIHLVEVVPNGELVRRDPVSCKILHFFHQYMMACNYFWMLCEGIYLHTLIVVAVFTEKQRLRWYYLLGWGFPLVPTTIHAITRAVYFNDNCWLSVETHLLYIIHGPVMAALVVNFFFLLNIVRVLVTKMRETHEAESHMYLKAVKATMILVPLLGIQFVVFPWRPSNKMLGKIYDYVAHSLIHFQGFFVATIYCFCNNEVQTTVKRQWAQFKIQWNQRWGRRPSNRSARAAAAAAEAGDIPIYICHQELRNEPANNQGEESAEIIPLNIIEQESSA
Assay: Homologous whole cell competition binding
Conditions: homologous competition of 125I-sCT(8-32), whole cells, mean ± S.E.M., SEM
Where no end group is shown, it is not given here.
measuredAttribute: pKi
Reminder that pKi means the negative base-10 logarithm of the concentration expressed in mol/L.

Exam item: Please report the measured pKi for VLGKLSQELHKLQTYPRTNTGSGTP-NH2 [sCT(8-32)]
Marked response: 9.88

----------
Target: hCTR L298A (Homo sapiens, UniProt P30988, L298A)
Construct: c-Myc (N); expressed in transfected cells
Assay: Homologous whole cell competition binding
Settings: homologous competition of 125I-sCT(8-32), whole cells, mean ± S.E.M., SEM
Description: Homologous radioligand competition was performed on 2.5 × 10^4 cells/well seeded into 96-well trays and cultured overnight. Cells were incubated overnight at 4 °C with two concentrations of ^125I-sCT(8-32) (between 25 and 100 pM; specific activity, 2000 Ci/mmol^9) and serial dilutions of non-iodinated sCT(8-32). Non-bound ligand was removed and bound ligand activity was measured using a γ counter (Wallac Wizard 1470 Gamma Counter, Perkin Elmer, 80% counter efficiency). […]
Where no end group is shown, it is not given here.
measuredAttribute: Ki
In your response, the unit should come after the numeric value.

Exam item: Write down measured Ki (hCTR L298A (Homo sapiens, UniProt P30988, L298A)) for this substance. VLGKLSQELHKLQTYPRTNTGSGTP-NH2 [sCT(8-32)]
Marked response: 148 pM

----------
Biological target: hCTR F285A (Homo sapiens, UniProt P30988, F285A)
Construct: expressed in transfected cells
Sequence (P30988 25-474 F285A): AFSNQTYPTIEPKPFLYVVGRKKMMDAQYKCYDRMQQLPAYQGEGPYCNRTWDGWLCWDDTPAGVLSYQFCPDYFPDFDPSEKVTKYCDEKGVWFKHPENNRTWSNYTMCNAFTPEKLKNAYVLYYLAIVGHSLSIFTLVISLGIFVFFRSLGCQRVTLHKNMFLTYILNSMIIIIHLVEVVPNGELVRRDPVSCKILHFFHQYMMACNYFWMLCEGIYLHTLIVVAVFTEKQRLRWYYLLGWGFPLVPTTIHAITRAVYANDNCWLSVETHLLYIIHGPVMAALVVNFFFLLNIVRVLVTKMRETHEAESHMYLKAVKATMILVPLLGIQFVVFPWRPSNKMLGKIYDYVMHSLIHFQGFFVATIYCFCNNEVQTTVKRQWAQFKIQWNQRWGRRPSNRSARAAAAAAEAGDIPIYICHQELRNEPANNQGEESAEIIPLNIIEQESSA
Experiment: Homologous whole cell competition binding
Conditions: homologous competition of 125I-sCT(8-32), whole cells, mean ± S.E.M., SEM
Where no end group is shown, it is not given here.
measuredAttribute: pKi
Reminder that pKi means the negative base-10 logarithm of the concentration expressed in mol/L.

Exam item: Please report the measured pKi for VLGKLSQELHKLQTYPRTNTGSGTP-NH2 [sCT(8-32)]
Marked response: 9.99
